Listed here are molecules together with their documented viability.
- PROTOCOL: growth inhibitors of H69AR lung tumor, primary screen, human, duplicate replicates (AID 580);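 further: 100% = mean luminescence of untreated wells and 0% = no signal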
- SETTINGS: H69AR lung tumor cells viability, ATP luminescence, 72 h; at 10 µM; stronger effect = lower value
QUANTITY KIND: viability (%)

1. Cc1ccc(-c2ccc(=O)n(CCC(=O)NCc3ccccn3)n2)cc1; 84.3
2. c1nnc(NC2=NCCCCC2)s1; 101
3. CCOC(=O)CSC1=C(C#N)C(=O)NC(c2ccc(OC)c(OC)c2)S1 (stereo unspecified); 97.2
4. O=c1[nH]c(SCc2cc(=O)n3ccccc3n2)nc2c1CCC2; 85.2
5. Nc1scc(-c2ccncc2)c1Cl; 96.2
6. CCCCCc1c(O)c2ccccc2[nH]c1=O; 98.1

====

- PROTOCOL: reducers of endogenous Her2 protein level, primary screen, SKBR3 breast tumor cells, AlphaScreen, ATP viability (AID 461);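 on viability: percent of carrier control wells set as 100% viability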
- SETTINGS: 18-24 h, measured here: SKBR3 viability, ATP luminescence, at 10 µM
Listed here are compounds together with their documented viability.
QUANTITY KIND: viability (%)

1) COc1ccc(-c2nnc3sc(-c4c(OC)cccc4OC)nn23)cc1; 105
2) CCC(C)NC(=O)C1(C)CCC(=O)N1Cc1ccccc1OC (stereo not drawn); 100
3) CCn1cc(C(=O)N=c2sc3ccccc3n2C)c(=O)c2ccc(C)nc21; 92.5
4) CCn1c(SCC(=O)N2CCOCC2)nc2c(c1=O)SC(C)C2 (stereo not drawn); 95
5) CC1C(O)=C(c2nc3ccccc3[nH]2)C(=N)N1c1ccccc1 (stereo not drawn); 110
6) CS(=O)(=O)N1CCCC(C(=O)NCCCN2CCC(Cc3ccccc3)CC2)C1 (stereo not drawn); 108
7) CCC(=O)Nc1ccc(Cl)c(NC(=O)C(C)C)c1; 97
8) CC(=O)Nc1ccc2c(c1)nc(CCNC(=O)c1ccccc1)n2C; 90.5
9) COc1ccc(C(=O)Cn2c(N3CCCCC3)nc3c2c(=O)n(C)c(=O)n3C)cc1OC; 94
10) O=C1CSC(c2cccc(F)c2)N1c1ccccc1F (stereo not drawn); 86
11) CCCCn1c(NCCC)nc2c1c(=O)[nH]c(=O)n2C; 96
12) COC(=O)c1cc(Br)c(=O)n(CCC2=CCCCC2)c1; 81.5
13) O=C(Nc1ccc(CN2CCCCC2)cc1)c1ccc2c(c1)OCO2; 80.5
14) CCOC(=O)N1CCC(N2C(=O)c3ccccc3C2Nc2ccc3c(C)cc(=O)oc3c2)CC1 (stereo not drawn); 76
15) Cc1cc(Nc2ccccc2N2CCOCC2)n2ncnc2n1; 94.5
16) COc1ccccc1OC(=O)c1ccc2nsnc2c1; 110
17) CC(=O)c1coc2ccc(OCC(=O)O)cc12; 104
18) CCN(CC)c1ccc(-c2c(C#N)c(N)nc(OC)c2C#N)cc1; 75.5
19) COc1ccc(-n2c(SCC#N)nc3ccccc3c2=O)cc1; 77
20) N#CC1=C(N)N(c2ccccc2)C2=C(C(=O)CCC2)C1c1cccs1 (stereo not drawn); 96.5
21) COc1ccc(N2CCN(C(c3cccs3)c3nnnn3C3CCCC3)CC2)cc1 (stereo not drawn); 90.5
22) Cc1nc(-c2cnn(-c3ccccc3)c2)c2cc(C)oc2n1; 74.5
23) O=C(Nc1ccc2c(c1)OCCO2)C1CCCN1S(=O)(=O)c1cccc2cccnc12 (stereo not drawn); 92

====

- PROTOCOL: growth suppression of yeast trafficking mutant, preliminary HTS, modulators of trafficking downstream of Golgi apparatus project, 1536-format plate, OD 615 nm (AID 637)
- SETTINGS: yeast transport mutant growth, absorbance 615 nm, 18 h; stronger effect = higher value
QUANTITY KIND: inhibition (%)

1) CCn1ncc(Cl)c1C(=O)Nc1ccncc1; -1.97
2) CN(C)c1ccc(NC(=O)c2cc3c(=O)n4ccccc4nc3n2C)cc1; 14.1
3) Cc1ccc(S(=O)(=O)N2CCCC(C(=O)NC3=NCCS3)C2)cc1 (stereo not given); 2.62
4) CCC(c1nnnn1CCOC)N(Cc1ccc(C)cc1)Cc1cc2cc(OC)ccc2[nH]c1=O (stereo not given); -1.77
5) Cn1c(C(=O)N2CCN(C(=O)c3ccco3)CC2)cc2c(=O)n3ccccc3nc21; -0.98
6) CCC(C)NC(=O)CC1Oc2ccc(C)cc2NC1=O (stereo not given); -3.28
7) CCC(Sc1nc2sc(C(=O)OC)c(C)c2c(=O)n1N)C(=O)NCC1CCCO1 (stereo not given); -1.27
8) COc1ccc(C(=O)N2CCN(S(=O)(=O)c3cc(Cl)ccc3OC)CC2)cc1; 8.33
9) O=C(CCC(=O)N(c1cccc(F)c1)C(C(=O)NC1CCCC1)c1ccncc1)Nc1cccnc1 (stereo not given); 2.74
10) C=CCn1c(-c2cccs2)nc2nc3ccccc3nc21; -8.73

====

Listed here are molecules together with their documented Her2 level.
- SYSTEM UNDER TEST: Receptor tyrosine-protein kinase erbB-2 (Homo sapiens)
- PROTOCOL: reducers of endogenous Her2 protein level, primary screen, SKBR3 breast tumor cells, AlphaScreen, ATP viability (AID 461);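 on Her2 level: lower value means less Her2 protein in the cells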;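 on viability: percent of carrier control wells set as 100% viability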
- SETTINGS: 18-24 h, at 10 µM, stronger effect = lower value
QUANTITY KIND: Her2 level (%)

1) Cn1cc(CC(=O)Nc2cccc(C#N)c2)c2ccccc21; 87.5
2) CCNC(=O)N(C(=O)NCC)n1c(C)nnc1C; 90
3) CN(C)c1ccc2c(c1)OC(N)=C(C#N)C2c1cccc(F)c1 (stereo not drawn); 90.5

====

- PROTOCOL: growth inhibitors of H69AR lung tumor, primary screen, human, duplicate replicates (AID 580);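 further: 100% = mean luminescence of untreated wells and 0% = no signal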
- SETTINGS: H69AR lung tumor cells viability, ATP luminescence, 72 h; at 10 µM; stronger effect = lower value
QUANTITY KIND: viability (%)

1) O=C(O)CCc1ccc(-c2ccc(F)cc2)n1CC(=O)O; 98
2) Cc1ccc2[nH]c3c(N4CCOCC4)ncnc3c2c1; 85.5
3) CCNCC(O)COCC(O)CNCC (stereo not given); 99.7
4) COC(=O)Cn1cnc2c(nnn2-c2ccc(C)cc2)c1=O; 94.7
5) Cn1cc(C(=O)c2ccc(F)cc2)cc1-c1nc2ccccc2n1C; 102
6) CCOC(=O)C1=C(C)N=C2SC(C)C(=O)N2C1c1cccc(F)c1 (stereo not given); 87.5
7) CC1CCN(C(=O)CCNS(=O)(=O)c2ccccc2)CC1; 92.8
8) O=C(NCC(c1cccnc1)N1CCN(c2ccc(F)cc2)CC1)c1ccc(F)cc1 (stereo not given); 92.7
9) Cc1nn(-c2ccc(Cl)cc2)c2sc(C(=O)N3CCN(c4ccccn4)CC3)cc12; 67.2
10) Cc1ccc(NC(=O)CSc2nnc(Cc3cccn3C)n2-c2ccc(F)cc2)cc1; 91.9

====

Listed here are compounds together with their documented inhibition.
- PROTOCOL: growth suppression of yeast trafficking mutant, preliminary HTS, modulators of trafficking downstream of Golgi apparatus project, 1536-format plate, OD 615 nm (AID 637)
- SETTINGS: yeast transport mutant growth, absorbance 615 nm, 18 h; stronger effect = higher value
QUANTITY KIND: inhibition (%)

1. O=S(=O)(CCOc1ccccc1)c1nc2ccccc2[nH]1; 3.11
2. Nc1nc(N)nc(-c2ccccc2)n1; -0.16
3. Cc1cc(SCC(N)=O)nc(SCC(=O)c2ccccc2)n1; -5.08
4. Cc1cc(C)cc(N2CCCn3c2nc2c3c(=O)n(CCN3CCOCC3)c(=O)n2C)c1; -3.44
5. Clc1cc2c(c(Cn3cnc4ccccc43)c1)OCOC2; -5.57
6. c1ccc(Cc2ccc(OCCn3cncn3)cc2)cc1; -7.38
7. CCc1nnc(NC(=O)c2ccc(COc3ccccc3)o2)s1; -4.6
8. CCOC(=O)c1sc2nc(C)cc(C)c2c1N; 4.52
9. COc1ccc(C2CC(=O)C(C=NCCN3CCOCC3)=C(O)C2)cc1 (centres undefined); 8.69
10. CC(NC(=O)c1ccco1)C(c1cccs1)N1CCN(c2ccc(F)cc2)CC1 (centres undefined); 0.16
11. c1ccc(-c2nnc(OCCN3CCOCC3)c3ccccc23)cc1; 2.62
12. COc1cccc(N2CCN(CC(=O)Nc3nnc(-c4ccccc4)s3)CC2)c1; -1.64
13. O=C(c1ccco1)N1CCN(/C(=N/S(=O)(=O)c2cccs2)c2ccccc2Cl)CC1; -3.77
14. Cn1c(=O)c2c([nH]c(=O)n2C)n(C)c1=O; 7.21
15. CCCCn1nnnc1SCC(=O)Nc1cccc(C)n1; 3.5
16. Cc1nnc(SCCn2c(N3CC(C)CC(C)C3)nc3c2c(=O)n(C)c(=O)n3C)s1 (centres undefined); 24.7
17. N#CC1=C(N)OC(c2ccccc2)=C(C#N)C1c1ccc2c(c1)OCO2 (centres undefined); 100
18. COCCN1CCN(c2c(C)c(C)nc3cc(-c4cccc(OC)c4)nn23)CC1; -1.43
19. CCOC(=O)c1cccc(NC(=O)c2ccco2)c1; -1.17
20. CC1CCN(CCCNC(=O)c2cn(C)c3ccc(S(=O)(=O)N4CCCC4)cc3c2=O)CC1; 1
21. CCOC(=O)CSC1=Nc2ccccc2C2=NC(CC(=O)NCc3ccc(OC)cc3)C(=O)N12 (centres undefined); -1.27
22. O=C(NCC(F)(F)F)N1CCOCC1; -6.19
23. O=C1c2ccccc2C(=O)N1C/C=C/c1ccccc1; -1.29
24. C=C(C)Cn1c(SCC)nc2ccccc2c1=O; -3.27
25. Cc1cc(C)nc(SCC(=O)Nc2ncc3c(n2)CCCC3=O)n1; -4.13
26. Cc1ccccc1N1C(N)=NC(N)=NC1(C)C; -3.17
27. Cc1cc(C)c(-c2cc(C(=O)Nc3c(C)n(C)n(-c4ccccc4)c3=O)[nH]n2)c(O)c1; -5.09
28. COc1ccc(C2/C(=C(/O)c3ccccc3)C(=O)C(=O)N2C)cc1 (centres undefined); 1.97
29. C=CCn1c(SCC(=O)NC2CCCCC2)nnc1-c1sc(N)nc1C; -1.45
30. CCOC(=O)CSC1=C(C#N)C(=O)NC2(CCCCC2)S1; -5.24
31. COc1ccc(C2(C(=O)N3CCCC3)CCOCC2)cc1OC; -11
32. CCOC(=O)C1=C(C)OC(N)=C(C#N)C1c1ccoc1 (centres undefined); -4.17
33. COc1ccccc1OC(=O)c1ccc2nsnc2c1; -6.55
34. CCOC(=O)c1cc(-c2ccco2)nc2c1c(C)nn2CCC#N; 3.97
35. COc1ccc(-c2nc3c(c(=O)n(C)c(=O)n3C)n2CC2CC(c3ccccc3)=NO2)cc1OC (centres undefined); 2.22
36. O=C(O)Cn1cc2c(n1)CCCC2; 5.41
37. CC(C)(C)C(=O)/C=C(\N)c1ccccn1; -4.92
38. O=C(Nc1ccc(Cc2ccc(NC(=O)N3CCOCC3)cc2)cc1)N1CCOCC1; -1.17
39. Cc1ccc(S(=O)(=O)N(C)Cc2cc3ccccc3[nH]c2=O)cc1; -6.91
